Assayed System: yeast α-glucosidase (Saccharomyces cerevisiae)
Construct: purchased Sigma-Aldrich Co. LLC (St. Louis, MO)
Sequence (P53341 whole entry): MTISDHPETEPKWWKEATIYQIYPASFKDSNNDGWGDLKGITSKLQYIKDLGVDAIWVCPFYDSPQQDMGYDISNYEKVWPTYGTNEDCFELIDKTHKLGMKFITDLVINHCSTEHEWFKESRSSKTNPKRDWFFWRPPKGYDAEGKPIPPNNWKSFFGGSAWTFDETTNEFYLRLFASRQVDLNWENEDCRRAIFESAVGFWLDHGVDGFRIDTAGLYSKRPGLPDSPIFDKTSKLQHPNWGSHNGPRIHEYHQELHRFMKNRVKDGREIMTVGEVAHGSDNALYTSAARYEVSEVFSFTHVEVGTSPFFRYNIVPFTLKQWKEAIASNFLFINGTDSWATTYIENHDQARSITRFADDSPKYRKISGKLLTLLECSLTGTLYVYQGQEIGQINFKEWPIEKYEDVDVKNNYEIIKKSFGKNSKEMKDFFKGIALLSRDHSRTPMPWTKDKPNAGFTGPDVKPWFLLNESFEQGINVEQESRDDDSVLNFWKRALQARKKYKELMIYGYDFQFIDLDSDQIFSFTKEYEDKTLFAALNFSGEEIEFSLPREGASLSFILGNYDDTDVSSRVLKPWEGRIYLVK
Assay Remarks: Inhibitory kinetic analysis (Michaelis–Menten, Lineweaver–Burk plots)
Format: biochemical
Condition Parameters: pNPG 300, 600 and 1200 μM
Measurement Kind: Type of inhibition

Completed entries (count: 5):
compound=O=c1c(Cl)c(-c2ccc(O)c(O)c2)oc2cc(O)cc(O)c12 measurement_kind="Type of inhibition" result=Non-competitive
compound="O=C1c2c(O)cc(O)cc2OC(c2ccc(O)c(O)c2)C1O (stereo not shown)" measurement_kind="Type of inhibition" result=Non-competitive
compound="C[C@H]1O[C@H](O[C@H]2[C@H](O)[C@@H](O)[C@@H](O[C@H]3[C@H](O)[C@@H](O)C(O)O[C@@H]3CO)O[C@@H]2CO)[C@H](O)[C@@H](O)[C@@H]1N[C@H]1C=C(CO)[C@@H](O)[C@H](O)[C@H]1O (stereo partly shown) [Acarbose, reference compound]" measurement_kind="Type of inhibition" result=Competitive
compound=O=c1c(O)c(-c2ccc(O)c(O)c2)oc2cc(O)cc(O)c12 measurement_kind="Type of inhibition" result=Competitive
compound=O=c1c(O)c(-c2ccc(O)c(O)c2)oc2ccccc12 measurement_kind="Type of inhibition" result=Mixed

For every item in the list below, what is its measured Type of inhibition?
1. O=c1cc(-c2ccc(O)cc2)oc2cccc(O)c12
2. O=c1c(O)c(-c2ccc(O)c(O)c2)oc2c(O)c(O)ccc12

["Mixed", "Competitive"]

---

Assayed System: α-glucosidase from Saccharomyces cerevisiae (Saccharomyces cerevisiae, UniProt P53341)
Construct: purchased Sigma-Aldrich Co. LLC (St. Louis, MO)
Sequence (P53341 whole entry): as above
Assay Remarks: biochemical
Condition Parameters: enzyme 0.05 U/mL, pNPG 600 μM, pH 6.8, 37 °C; mean ± SEM; read-out: IC50
Measurement Kind: IC50

Examples with their reported IC50 follow.
molecule="COc1ccc(-c2cc(=O)c3c(O)cc(O)cc3o2)cc1 [Compound D16, Acacetin]" result="~200 µM"
molecule="O=c1cc(-c2ccc(O)cc2)oc2cc(O)ccc12 [Compound C3]" result="~200 µM"
molecule="O=c1cc(-c2ccc(O)c(O)c2)oc2cc(O)c(Cl)c(O)c12 [Compound D11]" result="~200 µM"

IC50 recorded for this molecule, COc1ccc(-c2oc3ccccc3c(=O)c2O)cc1OC [Compound A6] , is > 100 µM

FYI, the data here is from paper PMC6009965.
